Biological target: T1, hRGMa-His (human, UniProt Q96B86 48-422, limits assumed)
T1 construct: not shown: His tag
T1 sequence: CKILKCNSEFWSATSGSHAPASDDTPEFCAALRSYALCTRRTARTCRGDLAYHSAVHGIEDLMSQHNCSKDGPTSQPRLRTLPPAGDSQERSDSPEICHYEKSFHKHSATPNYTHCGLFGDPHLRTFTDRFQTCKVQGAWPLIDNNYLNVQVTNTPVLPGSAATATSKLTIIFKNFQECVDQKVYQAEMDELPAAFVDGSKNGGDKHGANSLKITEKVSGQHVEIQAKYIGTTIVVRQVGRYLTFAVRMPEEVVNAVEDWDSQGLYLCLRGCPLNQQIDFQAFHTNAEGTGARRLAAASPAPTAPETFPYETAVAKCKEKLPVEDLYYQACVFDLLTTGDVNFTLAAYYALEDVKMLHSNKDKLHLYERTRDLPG
Assay: affinity KD as listed in Table 4 (equals BIAcore value of Table 5)
PROPERTY NAME: Kd (nM)
Number in nM, nothing else.

Before answering, review these 3 worked examples.
h5F9.AM4 (antibody, V domains shown, also called RGMA-h5F9AM.4; RGMA-h5F9Vh7a/pJP29 1 hIgG1/K mut) VH: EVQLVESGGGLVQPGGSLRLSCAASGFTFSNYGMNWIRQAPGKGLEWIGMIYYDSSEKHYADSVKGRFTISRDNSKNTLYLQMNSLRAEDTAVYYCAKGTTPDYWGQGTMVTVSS VL: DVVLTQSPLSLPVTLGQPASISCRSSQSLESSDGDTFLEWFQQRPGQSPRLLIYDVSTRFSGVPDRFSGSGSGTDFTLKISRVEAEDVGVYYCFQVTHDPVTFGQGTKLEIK | 0.015
h5F9.AM9 (antibody, V domains shown, also called RGMA-h5F9AM.9; RGMA-h5F9pJP297/pJP 299 hIgG1/K mut) VH: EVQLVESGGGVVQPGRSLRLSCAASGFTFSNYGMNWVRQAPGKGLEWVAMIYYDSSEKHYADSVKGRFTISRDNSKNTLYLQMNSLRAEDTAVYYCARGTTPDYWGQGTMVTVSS VL: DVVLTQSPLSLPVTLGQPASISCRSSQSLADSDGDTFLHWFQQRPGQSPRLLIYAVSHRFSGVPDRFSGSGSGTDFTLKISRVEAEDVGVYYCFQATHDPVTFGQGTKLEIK | 0.47
h5F9.AM11 (antibody, V domains shown, also called RGMA-h5F9AM; 11; RGMA-h5F9pJP302/pJP 303 hIgG1/K mut) VH: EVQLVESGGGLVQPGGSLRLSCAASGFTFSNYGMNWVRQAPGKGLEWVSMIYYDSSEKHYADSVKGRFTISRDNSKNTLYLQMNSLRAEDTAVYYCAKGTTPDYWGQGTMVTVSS VL: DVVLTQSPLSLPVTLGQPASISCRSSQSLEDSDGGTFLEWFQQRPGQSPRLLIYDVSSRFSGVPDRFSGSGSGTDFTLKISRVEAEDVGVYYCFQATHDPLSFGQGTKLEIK | 0.11

According to the records, this binder h5F9.AM8 (antibody, V domains shown, also called RGMA-h5F9AM.8; RGMA-h5F9pJP297/pJP 298 hIgG1/K mut) VH: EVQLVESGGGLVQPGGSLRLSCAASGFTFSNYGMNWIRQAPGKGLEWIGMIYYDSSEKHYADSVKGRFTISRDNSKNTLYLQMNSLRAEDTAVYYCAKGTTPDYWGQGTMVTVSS VL: DVVLTQSPLSLPVTLGQPASISCRSSQSLEESDGYTFLHWFQQRPGQSPRLLIYEVSTRFSGVPDRFSGSGSGTDFTLKISRVEAEDVGVYYCFQATHDPLTFGQGTKLEIK displays Kd of 0.031
